# Test system: NCI-H226 lung
# assayText: NCI-60 one-dose screen, 48 h
# studyConditions: 10 µM unless noted
This is part of a sample that, as a whole, favours compounds with a hit. Of some 83,000 tested, about 20% had one in any assay. Active and inactive are the calls of the source. How the source made its calls: active means growth percent below 10; inactive means the rest.
// classify into true for active, false for inactive

Exercise: Tell me the assay call for COc1cc2c(c(OC)c1OC)-c1ccc(N)c(=O)cc1[C@@H](NC(C)=O)CC2 please.
Key: false

* * *

Could you please report measured growth for the items listed next?
# Tested on: SN12C renal
# assayText: NCI-60 one-dose screen, 48 h (100 = growth as untreated, 0 = no growth, -100 = all killed)
# studyConditions: 10 µM unless noted
# Protocol: Growth inhibition of the SN12C human tumor cell line is measured as a screen for anti-cancer activity. Cells are grown in 96 well plates and exposed to the test compound for 48 hours. Compounds are tested at a single concentration, which is 10^-5 M for most compounds. The reported endpoint is percent growth (GI% or GIPRCNT), where numbers from 0 - 100% represent growth inhibition, and numbers from -100% - 0 represent cell death. For example, a value of 40 represents 60% growth inhibition. […]
About 83,000 compounds went through this panel and 20% of them were active in at least one assay; those are over-represented in the sample as a whole.
Numbers only, in %.

[[record]]
compound = "CCOC(=O)CN1/C(=N/c2sc3c(c2C(=O)OCC)CCN(C(=O)OCC)C3)SC(=O)/C1=C\\C(=O)OC"
readoutlabel = "growth"
reportedresult = 85.7

[[record]]
compound = "C=C(C)[C@@H]1CC[C@]2(C(=O)O)CC[C@]3(C)[C@H](CC[C@@H]4[C@@]5(C)C[C@@H](CC#Cc6ccc(C(F)(F)F)cc6)[C@H](O)C(C)(C)[C@@H]5CC[C@]43C)[C@@H]12"
readoutlabel = "growth"
reportedresult = 17.6


Quick one: give me growth for each item below, same order please.
1. COc1ccc(-c2c(N)n[nH]c2-c2cc(OC)c3c(c2)OCCO3)cc1
2. Cc1ccc(-c2cc3nc(-c4ccccc4)nc(C(Cl)Cl)n3n2)cc1

Key:
[88.7, 55.5]

* * *

Consider the following compounds; for each one, report its growth.
# Tested on: HCC-2998 colon
# assayText: NCI-60 one-dose screen, 48 h (100 = growth as untreated, 0 = no growth, -100 = all killed)
# studyConditions: 10 µM unless noted
The panel holds about 83,000 compounds, 20% with a hit somewhere; the sample as a whole holds those more often.
Give bare numbers, in %.

Observe how each entry below is paired with its result.
[[record]]
compound = "CCOC(=O)CN1/C(=N/c2sc3c(c2C(=O)OCC)CCN(C(=O)OCC)C3)SC(=O)/C1=C\\C(=O)OC"
unitspec = "%"
reportedresult = 94.4

[[record]]
compound = "COc1cccc(/C=C2\\Oc3cc(OCCCN4CCCC4)ccc3C2=O)c1OC"
unitspec = "%"
reportedresult = 113

[[record]]
compound = "O=C(NCCCNc1nccc(-n2ccc3cccnc32)n1)c1c(F)cccc1F"
unitspec = "%"
reportedresult = 104

[[record]]
compound = "NC(=N\\N=C/c1ccc(O)cc1)/C(N)=N\\N=C/c1ccc(O)cc1"
unitspec = "%"
reportedresult = 51

[[record]]
compound = "COc1ccc(C2C(C#N)=C(N)Oc3c2ccc2ccccc32)cc1 (stereo unspecified)"
unitspec = "%"
reportedresult = 74.4


List growth for every entry below, keeping the order given.
1. CCN(CC)CCOC(=O)C(c1ccccc1)(c1ccccc1)C(C)C
2. COc1ccc(-c2c(N)n[nH]c2-c2cc3c(c(OC)c2OC)OCO3)cc1
3. CCn1c2ccccc2c2cc(NC(=O)Nc3ccc([N+](=O)[O-])cc3C)ccc21
4. O=C(C1=Cc2cc3ccccc3n2Cc2cnnn21)c1ccccc1
5. CC12CCCC(CC(=O)c3[nH]c4ccccc4c31)C2 (stereo unspecified)
6. CCOC(=O)CC(=O)OC

Key:
1. 96.9
2. 106
3. 10.5
4. 71.7
5. 43.5
6. 104

* * *

# Tested on: SK-MEL-28 melanoma
# assayText: NCI-60 one-dose screen, 48 h (100 = growth as untreated, 0 = no growth, -100 = all killed)
# studyConditions: 10 µM unless noted
# Procedure: Growth inhibition of the SK-MEL-28 human tumor cell line is measured as a screen for anti-cancer activity. Cells are grown in 96 well plates and exposed to the test compound for 48 hours. Compounds are tested at a single concentration, which is 10^-5 M for most compounds. The reported endpoint is percent growth (GI% or GIPRCNT), where numbers from 0 - 100% represent growth inhibition, and numbers from -100% - 0 represent cell death. For example, a value of 40 represents 60% growth inhibition. […]
Compounds without any hit were thinned out: in the full panel of roughly 83,000, 20% have a hit.
Criterion: growth strictly less than 90%. Met: true. Not met: false.

Exercise: Here's an entry: CCN(CC)CCC(CNc1ccnc2cc(Cl)ccc12)c1ccc(Cl)cc1 (centres undefined) . Is its growth below 90%?
Key: true

Exercise: Quick check: growth of CN1CCN(Cc2ccc(NC(=O)c3cncc(C#Cc4cnc(N)c5cnccc45)c3)cc2C(F)(F)F)CC1 under 90%?
Key: true

Exercise: Please state whether growth is below 90% for CCCCC(CC)OC(=O)C(Br)CC (centres undefined)
Key: false

Exercise: # strict comparison: is reported growth < 90%? input = COc1ccc(/C=C\c2cc(OC)c(OC)c(OC)c2)cc1OC(=O)c1cccc(Cn2cc(CCOC(=O)c3cccc(Cn4nnc5c4C(=O)c4ccccc4C5=O)c3)nn2)c1
Key: true

Exercise: Is 90% strictly greater than the molecule's reported growth? molecule: CCCCCCCCN(CCCCCCCC)CCCCCCNc1cc(OC)cc2cccnc12
Key: false

Exercise: Find out if reported growth for Cc1cccc(/C=N/Nc2cc(C)c3cccc(C)c3n2)n1 is less than 90%
Key: false

Exercise: In plain terms, does Cc1ccc2[nH]c(=O)c3c(c2c1)Oc1ncn2nc(-c4ccco4)nc2c1C3c1ccc(Cl)cc1 (centres undefined) come in under 90% for growth?
Key: false

Exercise: # strict comparison: is reported growth < 90%? input = COc1cc(-c2nn(-c3cccc(NC(=O)Nc4cccc(C(F)(F)F)c4)c3)cc2-c2ccncc2)ccc1Cl
Key: true

Exercise: Does the reported growth of the following molecule sit strictly below 90%? CC(C)(C)OC(=O)NCCc1ccc(N=C=S)cc1
Key: true

* * *

# Tested on: SNB-19 CNS
# assayText: NCI-60 one-dose screen, 48 h (100 = growth as untreated, 0 = no growth, -100 = all killed)
# studyConditions: 10 µM unless noted
About 83,000 compounds went through this panel and 20% of them were active in at least one assay; those are over-represented in the sample as a whole.
readoutLabel: growth (%)
Give bare numbers, in %.

These recorded examples may help you get a feel for the data.
[[record]]
molecule = "COC(=O)c1nc(-c2ccccc2)oc1S(=O)(=O)N1CCN(c2cccc(Cl)c2)CC1"
readoutlabel = "growth"
reportedresult = 63.6

[[record]]
molecule = "Cc1c(C(=N)C(C#N)C#N)c(=N)oc2c1ccc1ccccc12"
readoutlabel = "growth"
reportedresult = 103

[[record]]
molecule = "CC(C)(C)n1cc(-c2ccnc(NCCCNS(=O)(=O)c3ccc(Br)cc3)c2)c(-c2cccc(O)c2)n1"
readoutlabel = "growth"
reportedresult = 48.7

[[record]]
molecule = "CN(C[C@H]1Cc2c(cccc2N2CCN(c3ncccn3)CC2)CN1)[C@H]1CCCc2cccnc21"
readoutlabel = "growth"
reportedresult = 41

[[record]]
molecule = "CC(C)(C)n1cc(-c2ccnc(NCCCNS(=O)(=O)c3ccc(Cl)cc3)c2)c(-c2cccc(O)c2)n1"
readoutlabel = "growth"
reportedresult = 24.6

[[record]]
molecule = "C=C(C)[C@@H]1C[C@@H]2Cc3ccc(Cl)c(C)c3N1O2"
readoutlabel = "growth"
reportedresult = 103

[[record]]
molecule = "COc1ccc(S(=O)(=O)n2cc(C(=O)C(=O)Nc3ccncc3)c3ccccc32)cc1F"
readoutlabel = "growth"
reportedresult = 78.9

[[record]]
molecule = "Cn1c(=O)c2[nH]c(C3CC=CCC3)nc2n(C)c1=O (stereo not given)"
readoutlabel = "growth"
reportedresult = 100


Give growth for all molecules that follow.
1. CC(C)(C)n1cc(-c2ccnc(NCCCNS(=O)(=O)c3ccc(F)cc3)c2)c(-c2cccc(O)c2)n1
2. CN1C(=O)N(C)C2C1NN=c1s/c(=C\c3cccnc3)c(=O)n12 (stereo not given)

Key:
[71.3, 81.4]

* * *

# Tested on: COLO 205 colon
# assayText: NCI-60 one-dose screen, 48 h
# studyConditions: 10 µM unless noted
This is part of a sample that, as a whole, favours compounds with a hit. Of some 83,000 tested, about 20% had one in any assay. The source made the active and inactive calls. Rule for the calls: active = growth percent below 10; inactive = the rest.
Pick one: Y = active, N = inactive

[[record]]
compound = "COc1ccc(/C=C2\\CN(Cc3cn(CCNc4ccnc5cc(Cl)ccc45)nn3)C/C(=C\\c3ccc(OC)c(OC)c3)C2=O)cc1OC"
group = "N"

[[record]]
compound = "CN(C)CCCC(C#N)c1ccccc1 (centres undefined)"
group = "N"

[[record]]
compound = "Cc1ccc2[nH]c(=O)c3c(c2c1)Oc1ncn2nc(-c4ccco4)nc2c1C3c1ccc(Cl)cc1 (centres undefined)"
group = "N"

[[record]]
compound = "COc1ccc(Nc2[nH]n3c(=O)cc(-c4ccccc4)nc3c2C(=O)Nc2ccc(C)cc2)c(OC)c1"
group = "N"

[[record]]
compound = "COc1ccc(S(=O)(=O)NCCCNc2nccc(-n3ccc4cccnc43)n2)cc1"
group = "N"


Exercise: What classification did CCN1C(=O)N(CC)C2C1NN=c1s/c(=C\c3cccnc3)c(=O)n12 (centres undefined) end up with in this test?
Key: N

Exercise: Assay outcome for COc1ccc2c(c1)[nH]c(=O)c1c3cc(C)c(C)cc3cn21 : what was it?
Key: Y

Exercise: Hi, do you know how COc1ccc2cc(-c3ccc(-c4ccc(C(=N)N)cc4)s3)ccc2c1 came out in this test?
Key: N

Exercise: Hi team, can someone confirm the assay call for O=c1[nH]c(NCc2ccccc2)nc2nc(Nc3ccc(NC(=S)Nc4ccccc4)cc3)nc(-c3ccc(O)cc3O)c12 ?
Key: N

Exercise: Just curious, what result did N#Cc1c(-c2ccccc2)nc(SCC(=O)N2CCN(c3ccccc3)CC2)[nH]c1=O get here?
Key: N

Exercise: Would you mind telling me which call this test gave COc1ccc(CCNC2=CC(=O)CCC2)cc1OC ?
Key: N
